- measurement-target: UniProt:P14416
- Sequence (P14416 whole entry): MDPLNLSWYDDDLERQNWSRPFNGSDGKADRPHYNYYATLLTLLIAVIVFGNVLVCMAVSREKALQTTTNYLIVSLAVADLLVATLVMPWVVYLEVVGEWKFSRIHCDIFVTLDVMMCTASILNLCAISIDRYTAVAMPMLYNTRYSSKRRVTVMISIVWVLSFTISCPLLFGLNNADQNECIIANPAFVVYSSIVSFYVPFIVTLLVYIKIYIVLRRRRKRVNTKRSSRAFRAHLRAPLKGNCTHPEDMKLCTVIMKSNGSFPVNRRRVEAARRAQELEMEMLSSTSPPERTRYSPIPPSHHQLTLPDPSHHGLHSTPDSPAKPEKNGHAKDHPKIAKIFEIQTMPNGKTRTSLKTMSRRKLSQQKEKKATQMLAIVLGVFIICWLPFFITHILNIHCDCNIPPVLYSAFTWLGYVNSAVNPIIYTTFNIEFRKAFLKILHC
Could you please report measured pKi for the items listed next?
Answers are plain numbers, as −log10 of the molar value.

Write pKi of "c1ccc(CN2CCC(n3cnc(-c4ccccc4)c3)CC2)cc1" ; system used: UniProt:P14416
6.35

Please look at "c1ccc(CN2CCC(n3nnc(-c4ccccc4)n3)CC2)cc1" and tell me its recorded pKi on UniProt:P14416.
5.96

Answer for every listed entry: what is its pKi? The entries follow.
1. c1ccc(CN2CCC(n3cc(-c4ccccc4)nn3)CC2)cc1
2. Cc1nn(C2CCN(Cc3cccc(C#N)c3)CC2)cc1-c1ccccc1
3. Cc1nn(C2CCN(Cc3ccccc3)CC2)cc1-c1ccccc1

[6.34, 7.82, 8.21]

Give pKi for this entry on UniProt:P14416: "Cc1cc(-c2ccccc2)n(C2CCN(Cc3ccccc3)CC2)n1"
6.51

---

- measurement-target: D(3) dopamine receptor (Homo sapiens)
Would you kindly list pKi for each of these compounds?
Answers are plain numbers, as −log10 of the molar value.

Provide reported pKi for each item, in the same order as listed.
1. Cc1c(-c2ccccc2)cnn1C1CCN(Cc2ccccc2)CC1
2. Cc1c(-c2ccccc2)cnn1C1CCN(Cc2cccc(Cl)c2)CC1
3. Cc1nnn(C2CCN(Cc3ccccc3)CC2)c1-c1ccccc1
4. c1ccc(CN2CCC(n3nccc3-c3ccccc3)CC2)cc1
5. Cc1nn(C2CCN(Cc3cccc(Cl)c3)CC2)cc1-c1ccccc1

1. 6.35
2. 6.09
3. 5.66
4. 6.09
5. 6.92

---

Sequence of the target: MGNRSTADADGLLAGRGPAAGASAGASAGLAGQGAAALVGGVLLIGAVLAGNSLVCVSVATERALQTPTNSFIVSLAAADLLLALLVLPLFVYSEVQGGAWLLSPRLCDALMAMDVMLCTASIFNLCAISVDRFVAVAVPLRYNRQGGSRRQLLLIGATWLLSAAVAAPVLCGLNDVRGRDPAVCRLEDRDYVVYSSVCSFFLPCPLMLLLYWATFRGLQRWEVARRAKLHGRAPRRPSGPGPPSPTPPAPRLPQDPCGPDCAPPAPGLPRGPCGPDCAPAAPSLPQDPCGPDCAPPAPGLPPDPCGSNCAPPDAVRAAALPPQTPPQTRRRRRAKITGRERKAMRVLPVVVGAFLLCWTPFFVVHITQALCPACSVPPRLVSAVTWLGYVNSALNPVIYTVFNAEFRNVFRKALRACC
Provide the recorded pKi for the entries that follow.
Answers are plain numbers, as −log10 of the molar value.

// worked examples, pKi included
Using the record for "Cc1nn(C2CCN(Cc3cccc(Cl)c3)CC2)cc1-c1ccccc1" , state its measured pKi.
8.51

Tell me measured pKi for "Cc1c(-c2ccccc2)n[nH]c1C1CCN(Cc2ccccc2)CC1" please.
8.33

Could you please provide reported pKi for "c1ccc(CN2CCC(n3nnc(-c4ccccc4)n3)CC2)cc1" ? Thanks!
7.57

Quickly give me recorded pKi for "Cc1c(-c2ccccc2)cnn1C1CCN(Cc2cccc(Cl)c2)CC1"
8.51

Consider the compound "c1ccc(CN2CCC(n3cc(-c4ccccc4)nn3)CC2)cc1" . State its measured pKi.
7.49

***
Indicate its recorded pKi; the compound in question is "c1ccc(CN2CCC(n3nnnc3-c3ccccc3)CC2)cc1"
5.92

---

Reported pKi for target or system D(3) dopamine receptor (Homo sapiens, UniProt P35462), by entry.
Numbers only, as −log10 of the molar value.

Find pKi for "Cc1cc(-c2ccccc2)n(C2CCN(Cc3ccccc3)CC2)n1" on D(3) dopamine receptor (Homo sapiens, UniProt P35462) and write it down.
Sequence (P35462 whole entry): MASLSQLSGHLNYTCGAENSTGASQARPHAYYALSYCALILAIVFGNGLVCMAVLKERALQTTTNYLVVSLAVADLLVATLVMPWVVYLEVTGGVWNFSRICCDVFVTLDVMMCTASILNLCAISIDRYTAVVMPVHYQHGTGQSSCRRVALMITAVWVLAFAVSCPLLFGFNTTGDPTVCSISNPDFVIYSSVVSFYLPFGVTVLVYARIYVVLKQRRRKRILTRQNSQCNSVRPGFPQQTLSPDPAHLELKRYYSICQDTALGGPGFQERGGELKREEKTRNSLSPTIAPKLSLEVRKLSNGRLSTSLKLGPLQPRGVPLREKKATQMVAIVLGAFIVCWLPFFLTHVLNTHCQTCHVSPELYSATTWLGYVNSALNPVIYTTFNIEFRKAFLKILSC
5.52

Jot down pKi (D(3) dopamine receptor (Homo sapiens, UniProt P35462)) of "Cc1nn(C2CCN(Cc3cccc(C#N)c3)CC2)cc1-c1ccccc1" .
6.59

More entries:
Provide D(3) dopamine receptor (Homo sapiens, UniProt P35462) pKi reading for "c1ccc(CN2CCC(n3nnc(-c4ccccc4)n3)CC2)cc1" .
5.85
